tested on: HCC-2998 colon; assay: NCI tumour cell line growth inhibition, 48 h; in the data active means GI50 below about 0.43 µM; inactive means the rest
In this exercise, the only acceptable responses are 1.0 = active, 0.0 = inactive

Example cases with answers are listed next.
>  <COMPOUND>
CN1CSC(=S)N(Cc2ccccc2)C1

>  <ASSIGNED_LABEL>
0.0

$$$$
>  <COMPOUND>
CN(Cc1cnc2nc(N)nc(N)c2n1)c1ccc(C(=O)NC(CCC(=O)O)C(=O)O)cc1Br (centres undefined)

>  <ASSIGNED_LABEL>
1.0

$$$$
>  <COMPOUND>
CC[n+]1c(/C=C/C=C2\N(C)c3ccccc3C2(C)C)sc2ccccc21

>  <ASSIGNED_LABEL>
0.0

$$$$

Then this compound:
Tell me the recorded outcome of this test for Cc1cc(Cl)nc(N(CCCNc2ccnc3cc(Cl)ccc23)Cc2ccco2)n1 .
0.0

* * *

Some compounds, each annotated with its measured TGI.
system: SNB-75 CNS; experiment: NCI tumour cell line growth inhibition, 48 h

Look over these answered cases.
>  <COMPOUND>
CCOC(=O)C1(C)CCCCC(=O)N1 (configuration not stated)

>  <TARGET_ENTITY>
SNB-75 CNS

>  <EXPERIMENTAL_VALUE>
> 100 µM

$$$$
>  <COMPOUND>
CC1C(c2ccc(Cl)cc2)c2cc3c(cc2OC1N1CCOCC1)OCO3 (configuration not stated)

>  <TARGET_ENTITY>
SNB-75 CNS

>  <EXPERIMENTAL_VALUE>
> 100 µM

$$$$
>  <COMPOUND>
Cc1ccc2c(c1)C(=O)C(C1OC(=O)c3ccccc31)C2 (configuration not stated)

>  <TARGET_ENTITY>
SNB-75 CNS

>  <EXPERIMENTAL_VALUE>
> 100 µM

$$$$
>  <COMPOUND>
c1ccc2c(c1)cc1n2CC2CN=NC12 (configuration not stated)

>  <TARGET_ENTITY>
SNB-75 CNS

>  <EXPERIMENTAL_VALUE>
> 100 µM

$$$$
>  <COMPOUND>
CC1(c2ccc(Cl)cc2)C2C(=O)NC(=O)C1C(=O)NC2=O (configuration not stated)

>  <TARGET_ENTITY>
SNB-75 CNS

>  <EXPERIMENTAL_VALUE>
> 100 µM

$$$$
>  <COMPOUND>
NC(=O)NC1C(C(N)=O)N(Cc2ccccc2)C(=O)N1Cc1ccccc1 (configuration not stated)

>  <TARGET_ENTITY>
SNB-75 CNS

>  <EXPERIMENTAL_VALUE>
> 100 µM

$$$$

Item C=CCc1cc(OC)c2c(c1)C(OC)CC(c1ccc(OC)c(OC)c1)O2 (configuration not stated) has what recorded TGI?
> 100 µM

Item CCOC(=O)C1=COC(C)(CCc2ccccc2)CC1=O (configuration not stated) has what recorded TGI?
> 100 µM

* * *

Some molecules, each annotated with its measured log10(TGI).
tested on: KM12 colon; experiment: NCI tumour cell line growth inhibition, 48 h
Could you please treat all values as log10 of TGI in µM?

>  <MOLECULE>
CC1=C(Nc2ccc(N3CCN(C)CC3)cc2)C(=O)c2cncnc2C1=O

>  <TARGET_ENTITY>
KM12 colon

>  <MEASURED_PROPERTY>
log10(TGI)

>  <EXPERIMENTAL_VALUE>
1.48

$$$$
>  <MOLECULE>
CCCCCCCCCCCC[n+]1ccc2ccccc2c1

>  <TARGET_ENTITY>
KM12 colon

>  <MEASURED_PROPERTY>
log10(TGI)

>  <EXPERIMENTAL_VALUE>
0.18

$$$$
>  <MOLECULE>
c1ccc2c3c([nH]c2c1)C(c1ccc(C2NCCc4c2[nH]c2ccccc42)cc1)NCC3 (stereo not given)

>  <TARGET_ENTITY>
KM12 colon

>  <MEASURED_PROPERTY>
log10(TGI)

>  <EXPERIMENTAL_VALUE>
0.37

$$$$
>  <MOLECULE>
CO[C@H]1C[C@@H]2CC[C@@H](C)[C@@](O)(O2)C(=O)C(=O)N2CCCC[C@H]2C(=O)O[C@H]([C@H](C)C[C@@H]2CC[C@@H](OCCO)[C@H](OC)C2)CC(=O)[C@H](C)C=C(C)[C@@H](O)[C@@H](OC)C(=O)[C@H](C)C[C@H](C)/C=C/C=C/C=C1C

>  <TARGET_ENTITY>
KM12 colon

>  <MEASURED_PROPERTY>
log10(TGI)

>  <EXPERIMENTAL_VALUE>
1.33

$$$$
>  <MOLECULE>
O=C(CN1C(=O)S/C(=C\C(Cl)=C\c2ccccc2)C1=O)NC1C=CS(=O)(=O)C1 (stereo not given)

>  <TARGET_ENTITY>
KM12 colon

>  <MEASURED_PROPERTY>
log10(TGI)

>  <EXPERIMENTAL_VALUE>
0.61

$$$$

Request body: readout log10(TGI), system KM12 colon, query CCN1CCN(C(=O)[C@]23CCC(C)(C)C[C@@H]2C2=CC[C@@H]4[C@@]5(C)C/C(=C/c6ccncc6)C(=O)C(C)(C)[C@@H]5CC[C@@]4(C)[C@]2(C)CC3)CC1 . Return the value.
0.47

* * *

Some compounds, each annotated with its measured TGI.
tested on: SF-539 CNS; assay: NCI tumour cell line growth inhibition, 48 h

Look over these answered cases.
>  <COMPOUND>
CCOC(=O)Cc1nc2c(N)ncnc2n1C1OC(COC(C)=O)C(OC(C)=O)C1OC(C)=O (stereo unspecified)

>  <EXPERIMENTAL_VALUE>
> 100 µM

$$$$
>  <COMPOUND>
N#C[C@H](c1nc2ccccc2s1)c1nc2ccccc2nc1Cl

>  <EXPERIMENTAL_VALUE>
> 100 µM

$$$$
>  <COMPOUND>
COc1ccc(C(C2=C(O)COC2=O)c2cc3c(cc2O)OCO3)cc1OC (stereo unspecified)

>  <EXPERIMENTAL_VALUE>
> 100 µM

$$$$
>  <COMPOUND>
Cc1ccccc1NC(=O)Cc1csc2[n+]1C(=O)/C(=C/c1ccc([N+](=O)[O-])cc1)S2

>  <EXPERIMENTAL_VALUE>
> 100 µM

$$$$
>  <COMPOUND>
Cc1ccc(S(=O)(=O)N/N=C(/c2nc3ccc([N+](=O)[O-])cc3[nH]c2=O)C(O)c2ccc(C(O)/C(=N\NS(=O)(=O)c3ccc(C)cc3)c3nc4ccc([N+](=O)[O-])cc4[nH]c3=O)cc2)cc1 (stereo unspecified)

>  <EXPERIMENTAL_VALUE>
> 100 µM

$$$$

Here's the next entry for you.
Item Nc1c(Cl)ncnc1NCCCNc1ncnc(Cl)c1N has what recorded TGI?
> 100 µM

* * *

tested on: HT29 colon; assay: NCI tumour cell line growth inhibition, 48 h
Some molecules, each annotated with its measured TGI.

>  <MOLECULE>
NC(Cc1ccc(S(=O)(=O)O)cc1)C(=O)NC(Cc1ccc(S(=O)(=O)O)cc1)C(=O)O (configuration not stated)

>  <TGI>
> 100 µM

$$$$
>  <MOLECULE>
CCCC(CCN)(CCN)[N+](=O)[O-]

>  <TGI>
> 100 µM

$$$$
>  <MOLECULE>
O=C(CCc1ccccc1)ON1C(=S)C(c2ccccc2)(c2ccccc2)N=C1Sc1ccccc1

>  <TGI>
> 100 µM

$$$$
>  <MOLECULE>
C(=C\N1CCCCC1)/c1nnnn1-c1ccccc1

>  <TGI>
> 100 µM

$$$$
>  <MOLECULE>
N#CC1c2ccccc2C=CN1C(=O)N(c1ccccc1)c1ccccc1 (configuration not stated)

>  <TGI>
11.5 µM

$$$$

Request body: readout TGI, system HT29 colon, query CC1(C)CC(=O)C2=C(C1)OC1=C(CC(C)(C)CC1=O)C2c1ccccc1[N+](=O)[O-] (configuration not stated) . Return the value.
> 100 µM

* * *

system: HL-60(TB) leukemia; experiment: NCI tumour cell line growth inhibition, 48 h; in the data active means GI50 below about 0.43 µM; inactive means the rest
In this exercise, the only acceptable responses are true (1) (active), false (0) (inactive)

>  <MOLECULE>
CN(Cc1cnc2nc(N)nc(N)c2n1)c1ccc(C(=O)NC(CCC(=O)O)C(=O)O)cc1Br (stereo not drawn)

>  <ASSIGNED_LABEL>
true (1)

$$$$
>  <MOLECULE>
CCn1c(-c2nonc2N)nc2cncc(C(=O)N3CC[C@H](N)C3)c21

>  <ASSIGNED_LABEL>
false (0)

$$$$
>  <MOLECULE>
C#CCOc1ccc2ncnc(Nc3ccc(NC(=O)C=C)cc3)c2c1

>  <ASSIGNED_LABEL>
false (0)

$$$$

Tell me the recorded outcome of this test for COc1nnc2ccc(N3CCC(c4ccc(OCCN5CCN(C)C(=O)[C@H]5C)cc4)CC3)nn12 .
true (1)

Tell me the recorded outcome of this test for COc1ccc(N(C)c2nc(N)nc3sc4c(c23)CCCC4)cc1 .
true (1)

Tell me the recorded outcome of this test for Cc1cc(Cl)nc(N(CCCNc2ccnc3cc(Cl)ccc23)Cc2ccco2)n1 .
false (0)

Tell me the recorded outcome of this test for CC(=O)[O][Hg][c]1c(C)c(C)cc(C)c1C .
false (0)

Tell me the recorded outcome of this test for O=[N+]([O-])c1cccc(C2CC(c3ccccc3)=Nc3ccccc3S2)c1 (stereo not drawn) .
false (0)
